Just for reference, patent US20160185837A1 is where these values come from.

testedSystem: human glucagon receptor (human, UniProt P47871 26-477)
testMethodNotes: cell-based or functional assay
parameter: cAMP EC50 (nM)
Give the quantity in nM, number only.

IP201 (Fc fusion) YSEGTFTSDYSKLLEEEAVRLFIEWLLAGPSSGAPPPSAAAGGSGSTASSGSGSATGGGGAATHTCPPCPAPEF    3.9

Then there is this binder:
Q: Using the record for IP268 (Fc fusion) YSEGTFTSDYSKLLEEEAVRLFIEWLVKGPGGGGGSGGGGSGGGGSGGGGSATHTCPPC , state its measured cAMP EC50.
Ans: 2900
